From: ChEMBL document CHEMBL4665836

tested on: Pseudomonas aeruginosa; assay: Antibacterial activity against Pseudomonas aeruginosa PAO750 harboring mexAB-oprM/mexCD-oprJ/mexEF-oprN/mexJK/mexXY/opmH efflux deficient mutant; format: functional
quantity: MIC

| chemical string | MIC |
| --- | --- |
| Cl.Cl.Cl.Cl.Cl.NC[C@H]1O[C@H](O[C@H]2[C@H](OCCCCCCCCCCCCN3CCN(c4cc5c(cc4F)c(=O)c(C(=O)O)cn5C4CC4)CC3)[C@@H](O)[C@H](N)C[C@@H]2N)[C@H](N)C[C@@H]1O | 2 µg/mL |

We now examine a further compound.
input: Entry Cl.Cl.Cl.Cl.Cl.Cl.NC[C@H]1O[C@H](O[C@H]2[C@H](OCCCCCCCCCCCCN3CCN(c4cc5c(cc4F)c(=O)c(C(=O)O)cn5C4CC4)CC3)[C@@H](O[C@H]3O[C@H](CO)[C@@H](O)[C@H](N)[C@H]3O)[C@H](N)C[C@@H]2N)[C@H](N)C[C@@H]1O : reported MIC = ?
output: 2 µg/mL

====

test system: Pseudomonas aeruginosa; test: Potentiation of aztreonam-induced antibacterial activity against carbapenem-resistant Pseudomonas aeruginosa PAO750 harboring mexAB-oprM/mexCD-oprJ/mexEF-oprN/mexJK/mexXY/opmH efflux deficient mutant assessed as aztreonam MIC at 8 uM by checkerboard assay (reference value: 0.5 ug/ml); format: functional
quantity: MIC (µg/mL)
Use µg/mL as the unit, but write only the number.

Worked cases, answers included:
| chemical string | reading |
| --- | --- |
| Cl.Cl.Cl.Cl.Cl.Cl.NC[C@H]1O[C@H](O[C@H]2[C@H](OCCCCCCCCCCCCN3CCN(c4cc5c(cc4F)c(=O)c(C(=O)O)cn5C4CC4)CC3)[C@@H](O[C@H]3O[C@H](CO)[C@@H](O)[C@H](N)[C@H]3O)[C@H](N)C[C@@H]2N)[C@H](N)C[C@@H]1O | 0.06 |
| Cl.Cl.Cl.Cl.Cl.NC[C@H]1O[C@H](O[C@H]2[C@H](OCCCCCCCCCCCCN3CCN(c4cc5c(cc4F)c(=O)c(C(=O)O)cn5C4CC4)CC3)[C@@H](O)[C@H](N)C[C@@H]2N)[C@H](N)C[C@@H]1O | 0.13 |
| NC[C@H]1O[C@H](O[C@H]2[C@H](OCCCCc3cn(CCCCO[C@@H]4[C@@H](O)[C@H](N)C[C@H](N)[C@H]4O[C@H]4O[C@H](CN)[C@@H](O)C[C@H]4N)nn3)[C@@H](O)[C@H](N)C[C@@H]2N)[C@H](N)C[C@@H]1O.O=C(O)C(F)(F)F.O=C(O)C(F)(F)F.O=C(O)C(F)(F)F.O=C(O)C(F)(F)F.O=C(O)C(F)(F)F.O=C(O)C(F)(F)F.O=C(O)C(F)(F)F.O=C(O)C(F)(F)F | 0.25 |
| N=C(N)NC[C@H]1O[C@H](O[C@H]2[C@H](OCCCCCCCCCCCCN3CCN(c4cc5c(cc4F)c(=O)c(C(=O)O)cn5C4CC4)CC3)[C@@H](O[C@H]3O[C@H](CO)[C@@H](O)[C@H](NC(=N)N)[C@H]3O)[C@H](NC(=N)N)C[C@@H]2NC(=N)N)[C@H](NC(=N)N)C[C@@H]1O.O=C(O)C(F)(F)F.O=C(O)C(F)(F)F.O=C(O)C(F)(F)F.O=C(O)C(F)(F)F.O=C(O)C(F)(F)F.O=C(O)C(F)(F)F | 0.06 |

We now examine a further molecule.
input: Entry NC[C@H]1O[C@H](O[C@H]2[C@H](OCCCCCCCCN3CCCNCCNCCCNCC3)[C@@H](O)[C@H](N)C[C@@H]2N)[C@H](N)C[C@@H]1O.O=C(O)C(F)(F)F.O=C(O)C(F)(F)F.O=C(O)C(F)(F)F.O=C(O)C(F)(F)F.O=C(O)C(F)(F)F.O=C(O)C(F)(F)F.O=C(O)C(F)(F)F.O=C(O)C(F)(F)F : reported MIC = ?
output: 0.13

====

test system: Pseudomonas aeruginosa; test: Potentiation of aztreonam-induced antibacterial activity against carbapenem-resistant Pseudomonas aeruginosa 107092 clinical isolate assessed as fold reduction in aztreonam MIC at 8 uM in presence of beta-lactamase inhibitor, avi-bactam; type: functional
quantity: fold change (FC)

| chemical string | tested target | quantity | reading |
| --- | --- | --- | --- |
| N=C(N)NC[C@H]1O[C@H](O[C@H]2[C@H](OCCCCCCCCCCCCN3CCN(c4cc5c(cc4F)c(=O)c(C(=O)O)cn5C4CC4)CC3)[C@@H](O[C@H]3O[C@H](CO)[C@@H](O)[C@H](NC(=N)N)[C@H]3O)[C@H](NC(=N)N)C[C@@H]2NC(=N)N)[C@H](NC(=N)N)C[C@@H]1O.O=C(O)C(F)(F)F.O=C(O)C(F)(F)F.O=C(O)C(F)(F)F.O=C(O)C(F)(F)F.O=C(O)C(F)(F)F.O=C(O)C(F)(F)F | Pseudomonas aeruginosa | fold change (FC) | 16 |

We now examine a further compound.
input: Entry NC[C@H]1O[C@H](O[C@H]2[C@H](OCCCCc3cn(CCCCO[C@@H]4[C@@H](O)[C@H](N)C[C@H](N)[C@H]4O[C@H]4O[C@H](CN)[C@@H](O)C[C@H]4N)nn3)[C@@H](O)[C@H](N)C[C@@H]2N)[C@H](N)C[C@@H]1O.O=C(O)C(F)(F)F.O=C(O)C(F)(F)F.O=C(O)C(F)(F)F.O=C(O)C(F)(F)F.O=C(O)C(F)(F)F.O=C(O)C(F)(F)F.O=C(O)C(F)(F)F.O=C(O)C(F)(F)F : reported fold change (FC) = ?
output: 16

====

Parameter MIC: see the listing below.
system: Pseudomonas aeruginosa; assay: Potentiation of imipenem-induced antibacterial activity against carbapenem-resistant Pseudomonas aeruginosa 262-101856 clinical isolate assessed as imipenem MIC at 8 uM by checkerboard assay (reference value: 32 ug/ml); assay type: functional
Use µg/mL as the unit, but write only the number.

Worked cases, answers included:
| chemical string | tested target | MIC (µg/mL) |
| --- | --- | --- |
| Cl.Cl.Cl.Cl.Cl.NC[C@H]1O[C@H](O[C@H]2[C@H](OCCCCCCCCCCCCN3CCN(c4cc5c(cc4F)c(=O)c(C(=O)O)cn5C4CC4)CC3)[C@@H](O)[C@H](N)C[C@@H]2N)[C@H](N)C[C@@H]1O | Pseudomonas aeruginosa | 8 |
| NC[C@H]1O[C@H](O[C@H]2[C@H](OCCCCc3cn(CCCCO[C@@H]4[C@@H](O)[C@H](N)C[C@H](N)[C@H]4O[C@H]4O[C@H](CN)[C@@H](O)C[C@H]4N)nn3)[C@@H](O)[C@H](N)C[C@@H]2N)[C@H](N)C[C@@H]1O.O=C(O)C(F)(F)F.O=C(O)C(F)(F)F.O=C(O)C(F)(F)F.O=C(O)C(F)(F)F.O=C(O)C(F)(F)F.O=C(O)C(F)(F)F.O=C(O)C(F)(F)F.O=C(O)C(F)(F)F | Pseudomonas aeruginosa | 4 |

We now examine a further compound.
input: Entry NC[C@H]1O[C@H](O[C@H]2[C@H](OCCCCCCCCN3CCCNCCNCCCNCC3)[C@@H](O[C@H]3O[C@H](CO)[C@@H](O)[C@H](N)[C@H]3O)[C@H](N)C[C@@H]2N)[C@H](N)C[C@@H]1O.O=C(O)C(F)(F)F.O=C(O)C(F)(F)F.O=C(O)C(F)(F)F.O=C(O)C(F)(F)F.O=C(O)C(F)(F)F.O=C(O)C(F)(F)F.O=C(O)C(F)(F)F.O=C(O)C(F)(F)F.O=C(O)C(F)(F)F : reported MIC = ?
output: 16
